target of assay: CDK2/CyclinE (Homo sapiens (Human), UniProt P24941)
assay explanation: CDK2/CyclinE kinase assay (Nanosyn, Caliper microfluidic)
Assay type: biochemical
assay setup: Table 2; read-out: CDK2/CycE IC50
readout label: pIC50
// returns pIC50 (minus log10 of molar concentration), number only

Consider the reported pIC50 for these compounds:
compound: O=C1NCC2(CCCC2)n2c1cc1cnc(Nc3ccc(N4CCNCC4)cn3)nc12
data value: 4.95

compound: CC(C)N1CCN(c2ccc(Nc3ncc4cc5n(c4n3)C3(CCCCC3)CNC5=O)nc2)C[C@H]1C
data value: 5.34

compound: CC1CN(c2ccc(Nc3ncc4cc5n(c4n3)C3(CCCCC3)CNC5=O)nc2)C[C@@H](C)N1CC1CC1 (some centres unmarked)
data value: 5.40

So, CC1(C)CN(c2ccc(Nc3ncc4cc5n(c4n3)C3(CCCCC3)CNC5=O)nc2)CCN1CC1CC1 ? Its pIC50 was 5.82

For C[C@@H]1CN(c2ccc(Nc3ncc4cc5n(c4n3)C3(CCCCC3)CNC5=O)nc2)C[C@H](C)N1C the compound record lists pIC50 as 5.02
